The values you see were collected from patent US20100069458A1.

assay: Loss of viability, trypan blue uptake; type: cell-based; settings: human, Normal CD34+ cells, 50 nmol/L AUY922, read-out: % non-viable cells
metric: cytotoxicity at 48 h, 50 nmol/L

CCNC(=O)c1noc(-c2cc(C(C)C)c(O)cc2O)c1-c1ccc(CN2CCOCC2)cc1 [AUY922]    31.6%

====

test: Loss of viability, trypan blue uptake; assay type: cell-based; settings: human, Normal CD34+ cells, 20 nmol/L AUY922, read-out: % non-viable cells
metric: cytotoxicity at 48 h, 20 nmol/L (%)

CCNC(=O)c1noc(-c2cc(C(C)C)c(O)cc2O)c1-c1ccc(CN2CCOCC2)cc1    30.8
